The following compounds are shown together with reported MTD values.
method: Toxicity in white mouse
Format: organism-based
experimental_context: in vivo
# unit: mg/kg | format: bare number

Field: example entries. Status: answers known.
COc1[nH]nc2nncnc12 50
COc1nnc2nn(C)cnc1-2 0.2

Turning now to a further compound:
Problem: Endpoint output: MTD of `COc1nnc2n(C)ncnc1-2` . Value?
Result: 20

Numbers sourced from ChEMBL document CHEMBL2434869.
